The measurements presented in this section are drawn from paper PMC8225628.

# Experimental system: SARS-CoV-2 M^pro (Severe acute respiratory syndrome coronavirus 2, UniProt P0DTD1)
# Method summary: biochemical
# Run conditions: 30 nM is the biochemical limit of the assay; read-out: IC50 against M^pro
Endpoint label: IC50 (nM)
Entry rule: numbers only, all in nM.

I am curious: what IC50 value has been reported for CCOC(=O)C[C@H](NC(=O)[C@H](C)NC(=O)[C@@H](NC(=O)OCc1ccccc1)C(C)C)C(=O)COC(=O)c1c(Cl)cccc1Cl [Compound 4, reference compound] ?
30

----------
Assignment: determine reported inhibition at 10 µM for the given compounds.
# Experimental system: SARS-CoV-2 PL^pro (Severe acute respiratory syndrome coronavirus 2)
# Method summary: biochemical
# Run conditions: read-out: PL^pro % inhibition at 10 µM; ReFRAME hits, 10 µM
Entry rule: numbers only, all in %.

I am curious: what inhibition at 10 µM value has been reported for O=C1OC2(c3ccccc31)c1cc(I)c(O)c(I)c1Oc1c2cc(I)c(O)c1I ?
20

I am curious: what inhibition at 10 µM value has been reported for O=C(N/N=C/c1ccc([N+](=O)[O-])o1)c1cc([N+](=O)[O-])cc([N+](=O)[O-])c1O ?
23

I am curious: what inhibition at 10 µM value has been reported for Cc1cc(O)c2c(=O)c3c(O)cc(O)c4c5c(O)cc(O)c6c(=O)c7c(O)cc(C)c8c1c2c(c34)c(c78)c65 ?
12

I am curious: what inhibition at 10 µM value has been reported for O=C(NC1CC1)C(=O)C(Cc1ccccc1)NC(=O)C1CCC(=O)N1Cc1ccccc1 (centres unmarked) [Compound 2, ABT-957, reference compound] ?
17

I am curious: what inhibition at 10 µM value has been reported for Cc1cccnc1NS(=O)(=O)c1ccc(C#Cc2ccc(O)c(C(=O)O)c2)cc1 ?
22
